test: Phase 1 multiple ascending dose (MAD) pharmacokinetics, 14 days once daily; format: in vivo, human; conditions: human, plasma, oral, MAD Day 1, across 1-20 mg/kg/day; read-out: CL/F, range of geometric mean values
ASSAY_METRIC: CL/F

Q: Endpoint output: CL/F of C[C@@H]1C[C@H]2[C@@H]3CCC4=CC(=O)C=C[C@]4(C)C3=CC[C@]2(C)[C@@]1(O)C(=O)CO . Value?
Result: 23.7 to 33.7 mL/min/kg

====

test: Phase 1 single ascending dose (SAD) pharmacokinetics, fasted; type: in vivo, human; conditions: male, human, plasma; single oral 3 mg/kg, fasted; geometric mean (%CV); read-out: t½ (converted)
ASSAY_METRIC: half-life (h)
Please state the figure in h; there is no need to write the unit.

Q: Given C[C@@H]1C[C@H]2[C@@H]3CCC4=CC(=O)C=C[C@]4(C)C3=CC[C@]2(C)[C@@]1(O)C(=O)CO , state its recorded half-life.
Result: 2.5
